Recorded measurements of melting point, one per entry

{"columns": ["molecule", "melting point"],
 "data": [
  ["O=C(Nc1ccc2c(ccn2C(=O)c2cccc(F)c2)c1)c1cccnc1", "212.9 to 214.2 °C"],
  ["O=C(Nc1ccc2c(ccn2Cc2ccc(F)cc2)c1)c1cccnc1", "200 to 200.4 °C"],
  ["O=C(Nc1ccc2c(ccn2C(=O)c2cccc(F)c2)c1)c1ccnnc1", "196.7 to 196.9 °C"],
  ["O=C(Nc1ccc2c(ccn2Cc2ccccn2)c1)c1cccnc1", "142.9 to 144.3 °C"],
  ["Cn1ccc2cc(NC(=O)c3ccnnc3)ccc21", "181.1 to 182 °C"],
  ["Cn1ccc2cc(NC(=O)c3cnccn3)ccc21", "172.5 to 174 °C"],
  ["O=C(Nc1ccc2c(ccn2Cc2ccccn2)c1)c1ccnnc1", "141.8 to 143 °C"],
  ["Cn1ccc2cc(NC(=O)c3cccnc3)ccc21 [4l, N-(1-methyl-1H-indol-5-yl)nicotinamide]", "164.2 to 164.9 °C"],
  ["O=C(Nc1ccc2c(ccn2C(=O)c2cccc(F)c2)c1)c1cnccn1", "221.3 to 222.2 °C"],
  ["O=C(Nc1ccc2c(ccn2Cc2ccccn2)c1)c1cnccn1", "152 to 152.9 °C"],
  ["O=C(Nc1ccc2c(ccn2Cc2ccc(F)cc2)c1)c1ccnnc1", "212.6 to 213.1 °C"]
]}
